Where do the numbers come from? From ChEMBL document CHEMBL1145989.

// values below are IC50; system is 72 kDa type IV collagenase (Homo sapiens, UniProt P08253)
Sequence (P08253 whole entry): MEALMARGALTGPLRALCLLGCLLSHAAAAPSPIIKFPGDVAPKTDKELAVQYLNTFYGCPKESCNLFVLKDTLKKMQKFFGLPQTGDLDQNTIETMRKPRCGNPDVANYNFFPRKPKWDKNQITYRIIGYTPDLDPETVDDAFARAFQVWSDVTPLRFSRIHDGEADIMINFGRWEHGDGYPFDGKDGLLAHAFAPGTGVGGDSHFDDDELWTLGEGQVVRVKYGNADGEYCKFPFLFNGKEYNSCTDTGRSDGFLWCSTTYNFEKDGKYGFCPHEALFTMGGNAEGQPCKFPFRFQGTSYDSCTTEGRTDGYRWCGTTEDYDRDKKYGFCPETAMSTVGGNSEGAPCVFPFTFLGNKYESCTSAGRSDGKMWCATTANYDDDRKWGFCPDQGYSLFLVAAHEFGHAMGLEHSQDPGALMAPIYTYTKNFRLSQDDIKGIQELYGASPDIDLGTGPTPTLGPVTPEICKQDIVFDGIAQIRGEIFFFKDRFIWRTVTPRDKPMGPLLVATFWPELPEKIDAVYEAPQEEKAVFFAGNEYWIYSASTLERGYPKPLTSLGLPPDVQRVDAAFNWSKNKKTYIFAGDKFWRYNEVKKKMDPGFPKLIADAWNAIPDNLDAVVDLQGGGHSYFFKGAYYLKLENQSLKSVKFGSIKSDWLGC
# do not omit the unit; it follows the number

smilesStructure: C[C@@H](C[C@@H](COC(=O)CCC(=O)O)NC(=O)c1ccc(Oc2ccccc2)cc1)C(=O)NO
measurement: 1.1 nM

Then there is this compound:
Problem: For 72 kDa type IV collagenase (Homo sapiens, UniProt P08253), provide IC50 of C[C@@H](C[C@@H](CO)NC(=O)c1ccc(Oc2ccccc2)cc1)C(=O)NO please.
Solution: 0.65 nM

====

molecular target: Macrophage metalloelastase (Homo sapiens, UniProt P39900)
Sequence (P39900 whole entry): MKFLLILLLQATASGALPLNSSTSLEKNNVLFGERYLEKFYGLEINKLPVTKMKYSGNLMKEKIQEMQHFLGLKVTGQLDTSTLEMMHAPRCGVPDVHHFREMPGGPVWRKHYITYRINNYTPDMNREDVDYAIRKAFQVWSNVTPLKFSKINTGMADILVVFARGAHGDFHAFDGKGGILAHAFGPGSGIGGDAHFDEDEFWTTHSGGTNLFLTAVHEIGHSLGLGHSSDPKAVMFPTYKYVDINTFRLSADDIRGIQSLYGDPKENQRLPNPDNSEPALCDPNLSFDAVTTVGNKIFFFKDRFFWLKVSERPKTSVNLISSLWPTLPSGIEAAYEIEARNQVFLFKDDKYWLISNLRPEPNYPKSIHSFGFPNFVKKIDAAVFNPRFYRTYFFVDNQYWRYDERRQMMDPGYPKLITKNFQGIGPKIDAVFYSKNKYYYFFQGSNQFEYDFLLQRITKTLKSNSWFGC
endpointName: IC50 (nM)
Kindly answer with a numeric value in nM, unit omitted.

Problem: Report IC50 for C[C@@H](C[C@@H](COC(=O)CCC(=O)O)NC(=O)c1ccc(Oc2ccccc2)cc1)C(=O)NO tested on Macrophage metalloelastase (Homo sapiens, UniProt P39900).
Solution: 2.6
